Data provenance: patent US4962203A

System: guinea pig ileum (LTD4 induced contractions)
Test: Guinea-pig ileum assay: inhibition of LTD4 induced contractions
Set-up: species or system male Hartley strain guinea pigs
Conditions: Cavia porcellus; drug conc. 0.1 μg/mL; LTD4 0.3 ng/mL; read-out: % inhibition of LTD4 induced contractions, G.P. ileum assay
inhibition at 0.1 µg/mL overview
API: value field is a number in %; no unit string.

Past entries and their recorded results:
compound	target entity	inhibition at 0.1 µg/mL (%)
CC(Oc1cccc(C2CC2c2ccc3ccc(Cl)cc3n2)c1)c1nn[nH]n1 (centres unmarked)	guinea pig ileum (LTD4 induced contractions)	87
CC(Oc1cccc(/C=C/c2ccc3ccc(Cl)cc3n2)c1)c1nn[nH]n1 (racemic)	guinea pig ileum (LTD4 induced contractions)	100
CC(Oc1cccc(OCc2ccc3ccc(Br)cc3n2)c1)C(=O)O (centres unmarked)	guinea pig ileum (LTD4 induced contractions)	57
CC(Oc1cccc(/C=C/c2ccc3ccc(Cl)cc3n2)c1)C(=O)O (centres unmarked)	guinea pig ileum (LTD4 induced contractions)	95

Proceed to the following item.
Req: I have this compound here, CC(Oc1cccc(C#Cc2ccc3ccc(Br)cc3n2)c1)C(=O)O (centres unmarked) , and I need its recorded inhibition at 0.1 µg/mL.
Resp: 94

###

Tested on: guinea pig ileum (LTD4 induced contractions)
Assay: Guinea-pig ileum assay: inhibition of LTD4 induced contractions
Design: species or system male Hartley strain guinea pigs
Details: Cavia porcellus; drug conc. 10 μg/mL; LTD4 0.3 ng/mL; read-out: % inhibition of LTD4 induced contractions, G.P. ileum assay
inhibition at 10 µg/mL overview
Reply with the number, then its unit.

Past entries and their recorded results:
molecule	inhibition at 10 µg/mL
CC(Oc1cccc(C#Cc2ccc3ccc(Br)cc3n2)c1)C(=O)O (stereo not drawn)	97%
CC(Oc1cccc(OCc2ccc3ccc(Br)cc3n2)c1)C(=O)O (stereo not drawn)	100%
CC(Oc1cccc(C2CC2c2ccc3ccc(Cl)cc3n2)c1)c1nn[nH]n1 (stereo not drawn)	94%
CC(Oc1cccc(Sc2ccc3ccc(Cl)cc3n2)c1)C(=O)O (stereo not drawn) [reference compound]	89%

Req: I have this molecule here, CC(Oc1cccc(/C=C/c2ccc3ccc(Cl)cc3n2)c1)c1nn[nH]n1 (racemic) , and I need its recorded inhibition at 10 µg/mL.
Resp: 97%

Req: Entry CC(Oc1cccc(/C=C/c2ccc3ccc(Cl)cc3n2)c1)C(=O)O (stereo not drawn) please
Resp: 94%

###

Target: LTD4 binding (Cavia porcellus)
Construct: from tissue
Sequence (Q2NNR5 whole entry): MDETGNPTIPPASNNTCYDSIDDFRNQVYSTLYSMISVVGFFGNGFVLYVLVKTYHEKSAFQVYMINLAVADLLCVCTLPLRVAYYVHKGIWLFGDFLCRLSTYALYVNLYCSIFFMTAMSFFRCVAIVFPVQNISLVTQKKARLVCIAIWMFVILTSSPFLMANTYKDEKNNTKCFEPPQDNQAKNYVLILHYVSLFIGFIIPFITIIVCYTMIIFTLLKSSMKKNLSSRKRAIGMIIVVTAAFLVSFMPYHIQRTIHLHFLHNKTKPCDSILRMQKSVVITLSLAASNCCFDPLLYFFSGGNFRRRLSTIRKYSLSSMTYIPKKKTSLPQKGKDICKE
Experiment: LTD4 binding assay
Details: at the drug conc. (IC50)
parameter: % LTD4 bound, LTD4 binding assay (%)
API: value field is a number in %; no unit string.

Past entries and their recorded results:
compound	target entity	units of measure	% LTD4 bound, LTD4 binding assay
CC(Oc1cccc(C#Cc2ccc3ccc(Br)cc3n2)c1)C(=O)O (centres unmarked)	LTD4 binding (Cavia porcellus)	%	50
CC(Oc1cccc(/C=C/c2ccc3ccc(Cl)cc3n2)c1)C(=O)O (centres unmarked)	LTD4 binding (Cavia porcellus)	%	50
CC(Oc1cccc(C2CC2c2ccc3ccc(Cl)cc3n2)c1)c1nn[nH]n1 (centres unmarked)	LTD4 binding (Cavia porcellus)	%	50
CC(Oc1cccc(/C=C/c2ccc3ccc(Cl)cc3n2)c1)c1nn[nH]n1 (racemic)	LTD4 binding (Cavia porcellus)	%	50

Proceed to the following item.
Req: I have this compound here, CC(Oc1cccc(OCc2ccc3ccc(Br)cc3n2)c1)C(=O)O (centres unmarked) , and I need its recorded % LTD4 bound, LTD4 binding assay.
Resp: 50
